target: BLNG_00160 (SBP of LNB/GNB cluster) (Bifidobacterium longum); construct: gene BL1638; tag kept for detection; test: glycan array (CFG Mammalian Glycan Array v5.[…]), anti-GST Alexa […]; type: binding; conditions: glycan immobilised via spacer; protein 200 ug/ml; pH 7.4, 150 mM NaCl, 2 mM CaCl2, 2 mM MgCl2
Sequence (Q8G3W5 24-438): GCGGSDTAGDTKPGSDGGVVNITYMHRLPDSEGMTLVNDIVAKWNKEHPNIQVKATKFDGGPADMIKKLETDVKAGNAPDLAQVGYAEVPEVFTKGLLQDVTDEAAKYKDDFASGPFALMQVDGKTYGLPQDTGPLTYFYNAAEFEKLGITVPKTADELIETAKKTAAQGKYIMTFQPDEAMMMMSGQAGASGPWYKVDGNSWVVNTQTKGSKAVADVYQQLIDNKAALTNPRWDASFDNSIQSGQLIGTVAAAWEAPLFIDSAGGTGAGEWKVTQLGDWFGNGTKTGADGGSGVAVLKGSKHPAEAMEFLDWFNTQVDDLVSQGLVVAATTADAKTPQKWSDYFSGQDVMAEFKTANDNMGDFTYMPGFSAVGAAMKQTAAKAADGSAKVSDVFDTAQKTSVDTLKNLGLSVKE

COMPOUND_STRUCTURE_STRING | EXPERIMENTAL_SYSTEM | UNIT_SPEC | Average RFU^b
CC(=O)N[C@H]1[C@H](OCCN)O[C@H](CO)[C@@H](O)[C@@H]1O[C@@H]1O[C@H](CO)[C@H](O)[C@H](O)[C@H]1O | BLNG_00160 (SBP of LNB/GNB cluster) (Bifidobacterium longum) | RFU | 969
CC(=O)N[C@H]1[C@H](OCCCN)O[C@H](COS(=O)(=O)O)[C@@H](O)[C@@H]1O[C@@H]1O[C@H](CO)[C@H](O)[C@H](O)[C@H]1O | BLNG_00160 (SBP of LNB/GNB cluster) (Bifidobacterium longum) | RFU | 2646
CC(=O)N[C@H]1[C@H](OCCN)O[C@H](CO)[C@@H](O[C@@H]2O[C@H](CO)[C@H](O)[C@H](O[C@@H]3O[C@H](CO)[C@@H](O)[C@H](O[C@@H]4O[C@H](CO)[C@H](O)[C@H](O)[C@H]4O)[C@H]3NC(C)=O)[C@H]2O)[C@@H]1O | BLNG_00160 (SBP of LNB/GNB cluster) (Bifidobacterium longum) | RFU | 2029
CC(=O)N[C@H]1[C@H](O[C@@H]2[C@H](O)[C@@H](O)[C@H](O[C@H]3[C@H](O)[C@@H](O)[C@H](OCCCN)O[C@@H]3CO)O[C@@H]2CO)O[C@H](CO)[C@H](O)[C@@H]1O[C@@H]1O[C@H](CO)[C@H](O)[C@H](O)[C@H]1O | BLNG_00160 (SBP of LNB/GNB cluster) (Bifidobacterium longum) | RFU | 3430
CC(=O)N[C@H]1[C@H](OCCCN)O[C@H](CO)[C@@H](O[C@@H]2O[C@H](CO)[C@H](O)[C@H](O[C@@H]3O[C@H](CO)[C@H](O)[C@H](O)[C@H]3O)[C@H]2O)[C@@H]1O | BLNG_00160 (SBP of LNB/GNB cluster) (Bifidobacterium longum) | RFU | 4654

Values were extracted from paper PMC5069460.
